measured_target: Integrin alpha-V/beta-3 (Homo sapiens, UniProt P05106+P06756)
Sequence (P05106 27-788 limits assumed): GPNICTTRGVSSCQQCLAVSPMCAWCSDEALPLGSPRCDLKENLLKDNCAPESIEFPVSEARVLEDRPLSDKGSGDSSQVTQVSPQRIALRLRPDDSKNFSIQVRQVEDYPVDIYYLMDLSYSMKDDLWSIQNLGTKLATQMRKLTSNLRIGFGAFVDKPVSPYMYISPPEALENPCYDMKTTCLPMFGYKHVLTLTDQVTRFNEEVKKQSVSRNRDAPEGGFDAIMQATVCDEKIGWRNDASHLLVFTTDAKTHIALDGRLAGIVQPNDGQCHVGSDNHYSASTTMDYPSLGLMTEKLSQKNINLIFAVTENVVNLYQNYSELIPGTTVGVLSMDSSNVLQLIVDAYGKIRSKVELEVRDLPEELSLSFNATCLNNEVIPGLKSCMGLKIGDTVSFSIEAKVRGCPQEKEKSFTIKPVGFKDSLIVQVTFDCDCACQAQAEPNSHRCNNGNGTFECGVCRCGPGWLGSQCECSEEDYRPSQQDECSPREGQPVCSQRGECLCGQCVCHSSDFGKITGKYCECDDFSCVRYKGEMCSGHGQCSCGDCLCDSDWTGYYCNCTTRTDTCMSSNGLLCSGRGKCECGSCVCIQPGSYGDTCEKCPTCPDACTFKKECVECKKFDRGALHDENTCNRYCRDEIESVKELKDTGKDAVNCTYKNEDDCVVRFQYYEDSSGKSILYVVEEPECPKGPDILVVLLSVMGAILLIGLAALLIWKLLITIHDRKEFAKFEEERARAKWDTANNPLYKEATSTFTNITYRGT
Sequence (P06756 31-889 limits assumed): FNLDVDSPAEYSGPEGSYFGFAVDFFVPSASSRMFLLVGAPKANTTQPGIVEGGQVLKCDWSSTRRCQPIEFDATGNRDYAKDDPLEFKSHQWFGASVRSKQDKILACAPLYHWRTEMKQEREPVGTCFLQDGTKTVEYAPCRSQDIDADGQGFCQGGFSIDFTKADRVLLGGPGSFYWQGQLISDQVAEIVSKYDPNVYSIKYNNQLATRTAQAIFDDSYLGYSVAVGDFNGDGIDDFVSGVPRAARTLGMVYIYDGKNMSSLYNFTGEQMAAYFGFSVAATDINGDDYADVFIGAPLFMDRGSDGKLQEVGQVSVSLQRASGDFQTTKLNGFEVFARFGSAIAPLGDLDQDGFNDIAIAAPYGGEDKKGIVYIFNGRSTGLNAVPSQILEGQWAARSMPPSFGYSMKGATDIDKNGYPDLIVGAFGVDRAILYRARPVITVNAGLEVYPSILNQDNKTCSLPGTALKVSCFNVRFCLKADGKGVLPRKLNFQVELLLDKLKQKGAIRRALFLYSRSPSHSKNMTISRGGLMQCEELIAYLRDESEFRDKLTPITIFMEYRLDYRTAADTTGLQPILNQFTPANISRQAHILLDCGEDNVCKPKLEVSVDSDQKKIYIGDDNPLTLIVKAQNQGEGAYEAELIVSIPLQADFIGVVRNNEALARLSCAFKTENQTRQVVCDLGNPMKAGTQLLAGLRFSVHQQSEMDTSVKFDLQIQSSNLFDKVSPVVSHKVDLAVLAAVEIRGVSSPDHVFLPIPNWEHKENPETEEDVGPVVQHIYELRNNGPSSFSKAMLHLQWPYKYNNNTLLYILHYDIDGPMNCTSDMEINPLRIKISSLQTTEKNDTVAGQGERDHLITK
Sequence (P06756 891-1048 limits assumed): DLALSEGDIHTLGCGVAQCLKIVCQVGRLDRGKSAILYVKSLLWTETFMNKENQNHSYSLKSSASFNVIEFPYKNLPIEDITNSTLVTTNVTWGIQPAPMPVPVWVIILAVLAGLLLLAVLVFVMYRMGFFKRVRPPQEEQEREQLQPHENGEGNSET
experiment_notes: Binding affinity to alphaVbeta3 integrin in human SKOV3 cells assessed as inhibition of cell adhesion to fibrinogen measured after 2 hrs by MTT assay
// pIC50 lookup, one value per entry
In textbook form, pIC50 equals minus log to base ten of the concentration in mol/L.

{"smiles_data": "[N-]=[N+]=NCCCC(=O)NCCCC[C@@H]1NC(=O)[C@H](Cc2ccccc2)NC(=O)[C@H](CC(=O)O)NC(=O)CNC(=O)[C@H](CCCN=C(N)N)NC1=O", "experimental_result": 3.96}
{"smiles_data": "[N-]=[N+]=NCCCC(=O)N[C@@H](CCCNC(=N)N)C(=O)NCC(=O)N[C@@H](CC(=O)O)C(=O)N[C@@H](CCCNC(=N)N)C(=O)NCC(=O)N[C@@H](CC(=O)NCCCC[C@@H]1NC(=O)[C@H](Cc2ccccc2)NC(=O)[C@H](CC(=O)O)NC(=O)CNC(=O)[C@H](CCCN=C(N)N)NC1=O)C(=O)NCCCC[C@@H]1NC(=O)[C@H](Cc2ccccc2)NC(=O)[C@H](CC(=O)O)NC(=O)CNC(=O)[C@H](CCCN=C(N)N)NC1=O", "experimental_result": 5.05}
{"smiles_data": "[N-]=[N+]=NCCCC(=O)N[C@@H](CCCNC(=N)N)C(=O)NCC(=O)N[C@@H](CC(=O)O)C(=O)N[C@@H](CCCNC(=N)N)C(=O)NCC(=O)N[C@@H](CC(=O)O)C(=O)NCCCC[C@@H]1NC(=O)[C@H](Cc2ccccc2)NC(=O)[C@H](CC(=O)O)NC(=O)CNC(=O)[C@H](CCCN=C(N)N)NC1=O", "experimental_result": 4.60}

Query: Find the recorded pIC50 belonging to `[N-]=[N+]=NCCCC(=O)N[C@@H](CCCNC(=N)N)C(=O)NCC(=O)N[C@@H](CC(=O)O)C(=O)N[C@@H](CCCNC(=N)N)C(=O)NCC(=O)N[C@@H](CC(=O)N[C@H]1CSSC[C@@H](C(=O)O)NC(=O)[C@H](CC(=O)O)NC(=O)CNC(=O)[C@H](CCCNC(=N)N)NC(=O)[C@H](CC(=O)O)NC(=O)CNC(=O)[C@H](CCCNC(=N)N)NC1=O)C(=O)NCCCC[C@@H]1NC(=O)[C@H](Cc2ccccc2)NC(=O)[C@H](CC(=O)O)NC(=O)CNC(=O)[C@H](CCCN=C(N)N)NC1=O` and report it.
Result: 5.38

Query: Find the recorded pIC50 belonging to `[N-]=[N+]=NCCCC(=O)N[C@@H](CCCNC(=N)N)C(=O)NCC(=O)N[C@@H](CC(=O)N[C@H]1CSSC[C@@H](C(=O)O)NC(=O)[C@H](CC(=O)O)NC(=O)CNC(=O)[C@H](CCCNC(=N)N)NC(=O)[C@H](CC(=O)O)NC(=O)CNC(=O)[C@H](CCCNC(=N)N)NC1=O)C(=O)N[C@@H](CCCNC(=N)N)C(=O)NCC(=O)N[C@@H](CC(=O)O)C(=O)NCCCC[C@@H]1NC(=O)[C@H](Cc2ccccc2)NC(=O)[C@H](CC(=O)O)NC(=O)CNC(=O)[C@H](CCCN=C(N)N)NC1=O` and report it.
Result: 5.67

Query: Find the recorded pIC50 belonging to `[N-]=[N+]=NCCCC(=O)N[C@@H](CCCNC(=N)N)C(=O)NCC(=O)N[C@@H](CC(=O)N[C@H]1CSSC[C@@H](C(=O)O)NC(=O)[C@H](CC(=O)O)NC(=O)CNC(=O)[C@H](CCCNC(=N)N)NC(=O)[C@H](CC(=O)O)NC(=O)CNC(=O)[C@H](CCCNC(=N)N)NC1=O)C(=O)N[C@@H](CCCNC(=N)N)C(=O)NCC(=O)N[C@@H](CC(=O)O)C(=O)N[C@@H](CCCNC(=N)N)C(=O)NCC(=O)N[C@@H](CC(=O)O)C(=O)NCCCC[C@@H]1NC(=O)[C@H](Cc2ccccc2)NC(=O)[C@H](CC(=O)O)NC(=O)CNC(=O)[C@H](CCCN=C(N)N)NC1=O` and report it.
Result: 4.61

Reference source: ChEMBL document CHEMBL4422678
